Entry source: ChEMBL document CHEMBL1123302

# tested system: UniProtKB P30547
# assay procedure: In vitro inhibition of substance P (6-11) hexapeptide induced contractions of the guinea pig ileum at 10 uM.
# Type: tissue-based
property measured: Activity (dose ratio)
All answers are understood in dose ratio, so give the number only.

query: Any idea what Activity was measured for COC(=O)C(CCSC)NC(=O)[C@@H](CC(C)C)SCCNC(=O)[C@@H](Cc1ccccc1)NC(=O)[C@H](Cc1ccccc1)NC(=O)[C@H](CCC(N)=O)NC(=O)[C@H](CCC(N)=O)NC(=O)[C@H]1CCCN1C(=O)[C@H](CCCCN)NC(=O)[C@H]1CCCN1C(=O)[C@@H](N)CCCN=C(N)N (stereo in doubt) ?
result: 19

query: Any idea what Activity was measured for COC(=O)[C@@H](CCSC)NC(=O)[C@H](CC(C)C)SCCNC(=O)[C@H](Cc1ccccc1)NC(=O)[C@@H](Cc1ccccc1)NC(=O)[C@H](CCC(N)=O)NC(=O)[C@H](CCC(N)=O)NC(=O)C1CCCN1C(=O)OC(C)(C)C (stereo in doubt) ?
result: 10

query: Any idea what Activity was measured for `COC(=O)[C@@H](CCSC)NC(=O)[C@H](CC(C)C)SCCNC(=O)[C@H](Cc1ccccc1)NC(=O)[C@@H](Cc1ccccc1)NC(=O)[C@H](CCCN=C(N)N)NC(=O)[C@H](CC(N)=O)NC(=O)OCc1ccccc1` ?
result: 225

query: Any idea what Activity was measured for COC(=O)[C@@H](CCSC)NC(=O)[C@H](CC(C)C)N(C)C(=O)CN(C)C(=O)[C@H](Cc1ccccc1)NC(=O)[C@@H](Cc1ccccc1)NC(=O)[C@H](CCC(N)=O)NC(=O)[C@H](CCC(N)=O)NC(=O)C1CCCN1C(=O)[C@H](CCCCN)NC(=O)C1CCCN1C(=O)[C@@H](N)CCCN=C(N)N (stereo in doubt) ?
result: 2.5

###

# tested system: Substance-P receptor (Cavia porcellus) (UniProt P30547)
# Sequence (P30547 whole entry): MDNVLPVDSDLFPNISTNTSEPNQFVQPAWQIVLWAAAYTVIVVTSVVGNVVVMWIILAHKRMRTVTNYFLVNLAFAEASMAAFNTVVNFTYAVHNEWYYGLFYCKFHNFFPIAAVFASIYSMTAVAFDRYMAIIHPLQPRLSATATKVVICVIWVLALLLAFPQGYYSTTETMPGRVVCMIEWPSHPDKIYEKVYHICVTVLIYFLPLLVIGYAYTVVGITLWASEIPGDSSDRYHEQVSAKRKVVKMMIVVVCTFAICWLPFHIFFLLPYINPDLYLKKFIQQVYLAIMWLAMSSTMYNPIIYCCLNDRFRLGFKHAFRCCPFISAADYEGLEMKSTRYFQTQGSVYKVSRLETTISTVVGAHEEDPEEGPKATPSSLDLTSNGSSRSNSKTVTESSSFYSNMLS
# assay procedure: In vitro inhibition of substance P (6-11) hexapeptide induced contractions of the guinea pig ileum at 10 uM.
# Type: tissue-based
property measured: Activity (dose ratio)
All answers are understood in dose ratio, so give the number only.

query: Any idea what Activity was measured for `COC(=O)[C@@H](CCSC)NC(=O)[C@H](CC(C)C)SCCNC(=O)[C@@H](Cc1ccccc1)NC(=O)[C@H](Cc1ccccc1)NC(=O)[C@H](CCC(N)=O)NC(=O)[C@H](CCC(N)=O)NC(=O)[C@H]1CCCN1C(=O)[C@H](CCCCNC(=O)OCc1ccccc1)NC(=O)[C@H]1CCCN1C(=O)[C@H](CCCN=C(N)N)NC(=O)OCc1ccccc1` ?
result: 49.3

###

I'd be grateful if you could share measured Activity for these entries.
# tested system: Substance-P receptor (Cavia porcellus) (UniProt P30547)
# assay procedure: In vitro inhibition of substance P (6-11) hexapeptide induced contractions of the guinea pig ileum at 10 uM.
# Assay type: tissue-based
All answers are understood in dose ratio, so give the number only.

query: Lab note: need Activity for COC(=O)[C@H](CCSC)NC(=O)[C@H](CC(C)C)NC(=O)[C@@H](Cc1c[nH]c2ccccc12)NC(=O)[C@H](Cc1ccccc1)NC(=O)[C@@H](Cc1ccccc1)NC(=O)[C@H](CCCN=C(N)N)NC(=O)[C@H](CC(N)=O)NC(=O)C1CCCN1C(=O)[C@H](CCCCN)NC(=O)C1CCCN1C(=O)[C@@H](N)CCCN=C(N)N (stereo in doubt) on Substance-P receptor (Cavia porcellus) (UniProt P30547), anyone have it?
result: 4

query: Lab note: need Activity for COC(=O)[C@@H](CCSC)NC(=O)[C@H](CC(C)C)SCCNC(=O)[C@H](Cc1ccccc1)NC(=O)[C@@H](Cc1ccccc1)NC(=O)[C@H](CCCN=C(N)N)NC(=O)[C@H](CC(N)=O)NC(=O)C1CCCN1C(=O)[C@H](CCCCNC(=O)OCc1ccccc1)NC(=O)C1CCCN1C(=O)[C@H](CCCN=C(N)N)NC(=O)OCc1ccccc1 (stereo in doubt) on Substance-P receptor (Cavia porcellus) (UniProt P30547), anyone have it?
result: 68

###

I'd be grateful if you could share measured Activity for these entries.
# tested system: Substance-P receptor (Cavia porcellus)
# assay procedure: In vitro inhibition of substance P (6-11) hexapeptide induced contractions of the guinea pig ileum at 5 uM.
# Format: tissue-based

query: Any idea what Activity was measured for COC(=O)[C@@H](CCSC)NC(=O)[C@H](CC(C)C)SCCNC(=O)[C@H](Cc1ccccc1)NC(=O)[C@@H](Cc1ccccc1)NC(=O)[C@H](CCCN=C(N)N)NC(=O)[C@H](CC(N)=O)NC(=O)C1CCCN1C(=O)[C@H](CCCCNC(=O)OCc1ccccc1)NC(=O)C1CCCN1C(=O)[C@H](CCCN=C(N)N)NC(=O)OCc1ccccc1 (stereo in doubt) ?
result: 54.5 dose ratio

query: Any idea what Activity was measured for COC(=O)[C@@H](CCSC)NC(=O)C(CC(C)C)SCCNC(=O)[C@H](Cc1ccccc1)NC(=O)[C@@H](Cc1ccccc1)NC(=O)[C@H](CCC(N)=O)NC(=O)[C@H](CCC(N)=O)NC(=O)C1CCCN1C(=O)OC(C)(C)C (stereo in doubt) ?
result: < 2 dose ratio

query: Any idea what Activity was measured for COC(=O)[C@@H](CCSC)NC(=O)[C@H](CC(C)C)N(C)C(=O)CN(C)C(=O)[C@H](Cc1ccccc1)NC(=O)[C@@H](Cc1ccccc1)NC(=O)[C@H](CCC(N)=O)NC(=O)[C@H](CCC(N)=O)NC(=O)C1CCCN1C(=O)[C@H](CCCCN)NC(=O)C1CCCN1C(=O)[C@@H](N)CCCN=C(N)N (stereo in doubt) ?
result: < 2 dose ratio

query: Any idea what Activity was measured for `COC(=O)[C@@H](CCSC)NC(=O)[C@H](CC(C)C)SCCNC(=O)[C@@H](Cc1ccccc1)NC(=O)[C@H](Cc1ccccc1)NC(=O)[C@H](CCC(N)=O)NC(=O)[C@H](CCC(N)=O)NC(=O)[C@H]1CCCN1C(=O)[C@H](CCCCNC(=O)OCc1ccccc1)NC(=O)[C@H]1CCCN1C(=O)[C@H](CCCN=C(N)N)NC(=O)OCc1ccccc1` ?
result: 21.6 dose ratio

query: Any idea what Activity was measured for COC(=O)C(CCSC)NC(=O)[C@@H](CC(C)C)SCCNC(=O)[C@@H](Cc1ccccc1)NC(=O)[C@H](Cc1ccccc1)NC(=O)[C@H](CCC(N)=O)NC(=O)[C@H](CCC(N)=O)NC(=O)[C@H]1CCCN1C(=O)[C@H](CCCCN)NC(=O)[C@H]1CCCN1C(=O)[C@@H](N)CCCN=C(N)N (stereo in doubt) ?
result: 3.1 dose ratio

query: Any idea what Activity was measured for COC(=O)C(CCSC)NC(=O)[C@H](CC(C)C)SCCNC(=O)[C@@H](Cc1ccccc1)NC(=O)[C@@H](Cc1ccccc1)NC(=O)[C@H](CCC(N)=O)NC(=O)[C@H](CCC(N)=O)NC(=O)[C@H]1CCCN1C(=O)[C@H](CCCCN)NC(=O)[C@H]1CCCN1C(=O)[C@@H](N)CCCN=C(N)N (stereo in doubt) ?
result: 2.5 dose ratio

query: Any idea what Activity was measured for COC(=O)[C@H](CCSC)NC(=O)[C@H](CC(C)C)NC(=O)[C@@H](Cc1c[nH]c2ccccc12)NC(=O)[C@H](Cc1ccccc1)NC(=O)[C@@H](Cc1ccccc1)NC(=O)[C@H](CCCCN)NC(=O)[C@H](CC(N)=O)NC(=O)C1CCCN1C(=O)[C@H](CCCCN)NC(=O)C1CCCN1C(=O)[C@@H](N)CCCN=C(N)N (stereo in doubt) ?
result: < 2 dose ratio

###

I'd be grateful if you could share measured Change in amplitude response for these entries.
# tested system: Substance-P receptor (Rattus norvegicus) (UniProt P14600)
# Sequence (P14600 whole entry, looked up): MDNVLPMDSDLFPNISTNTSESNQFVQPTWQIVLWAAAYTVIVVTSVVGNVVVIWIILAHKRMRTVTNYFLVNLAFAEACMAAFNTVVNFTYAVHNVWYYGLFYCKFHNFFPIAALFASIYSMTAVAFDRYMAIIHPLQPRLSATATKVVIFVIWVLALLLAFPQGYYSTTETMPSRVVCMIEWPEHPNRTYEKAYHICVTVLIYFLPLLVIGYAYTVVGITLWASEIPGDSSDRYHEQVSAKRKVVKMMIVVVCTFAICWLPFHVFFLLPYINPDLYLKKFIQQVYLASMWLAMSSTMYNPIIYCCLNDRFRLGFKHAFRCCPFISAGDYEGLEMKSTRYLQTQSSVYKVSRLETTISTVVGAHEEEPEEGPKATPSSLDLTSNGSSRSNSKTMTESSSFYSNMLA
# assay procedure: Antagonistic activity against Substance P receptor in rat spinal cord at concentration of 50 uM.
Please report the result as a number followed by the unit.

query: Any idea what Change in amplitude response was measured for COC(=O)[C@@H](CCSC)NC(=O)[C@H](CC(C)C)NC(=O)CN(C)C(=O)[C@H](Cc1ccccc1)NC(=O)[C@@H](Cc1ccccc1)NC(=O)[C@H](CCC(N)=O)NC(=O)[C@H](CCC(N)=O)NC(=O)C1CCCN1C(=O)OC(C)(C)C (stereo in doubt) ?
result: -12%

query: Any idea what Change in amplitude response was measured for COC(=O)[C@@H](CCSC)NC(=O)[C@H](CC(C)C)SCCNC(=O)[C@H](Cc1ccccc1)NC(=O)[C@@H](Cc1ccccc1)NC(=O)[C@H](CCC(N)=O)NC(=O)[C@H](CCC(N)=O)NC(=O)C1CCCN1C(=O)OC(C)(C)C (stereo in doubt) ?
result: -54%

###

# tested system: Substance-P receptor (Rattus norvegicus) (UniProt P14600)
# assay procedure: Antagonistic activity against Substance P(6-11) receptor in rat spinal cord at concentration of 10 uM.
property measured: Change in amplitude response
Please report the result as a number followed by the unit.

query: Any idea what Change in amplitude response was measured for COC(=O)[C@H](CCSC)NC(=O)[C@H](CC(C)C)NC(=O)[C@@H](Cc1c[nH]c2ccccc12)NC(=O)[C@H](Cc1ccccc1)NC(=O)[C@@H](Cc1ccccc1)NC(=O)[C@H](CCCCN)NC(=O)[C@H](CC(N)=O)NC(=O)C1CCCN1C(=O)[C@H](CCCCN)NC(=O)C1CCCN1C(=O)[C@@H](N)CCCN=C(N)N (stereo in doubt) ?
result: -54%
